Below, each of the molecules is paired with its reported Kd value.
# SUBJECT OF TEST: FGFR4 (Homo sapiens, UniProt P22455)
# Construct: made in house; host or cells: E. coli (BL21-derived), T7 phage
# Sequence (P22455 22-802): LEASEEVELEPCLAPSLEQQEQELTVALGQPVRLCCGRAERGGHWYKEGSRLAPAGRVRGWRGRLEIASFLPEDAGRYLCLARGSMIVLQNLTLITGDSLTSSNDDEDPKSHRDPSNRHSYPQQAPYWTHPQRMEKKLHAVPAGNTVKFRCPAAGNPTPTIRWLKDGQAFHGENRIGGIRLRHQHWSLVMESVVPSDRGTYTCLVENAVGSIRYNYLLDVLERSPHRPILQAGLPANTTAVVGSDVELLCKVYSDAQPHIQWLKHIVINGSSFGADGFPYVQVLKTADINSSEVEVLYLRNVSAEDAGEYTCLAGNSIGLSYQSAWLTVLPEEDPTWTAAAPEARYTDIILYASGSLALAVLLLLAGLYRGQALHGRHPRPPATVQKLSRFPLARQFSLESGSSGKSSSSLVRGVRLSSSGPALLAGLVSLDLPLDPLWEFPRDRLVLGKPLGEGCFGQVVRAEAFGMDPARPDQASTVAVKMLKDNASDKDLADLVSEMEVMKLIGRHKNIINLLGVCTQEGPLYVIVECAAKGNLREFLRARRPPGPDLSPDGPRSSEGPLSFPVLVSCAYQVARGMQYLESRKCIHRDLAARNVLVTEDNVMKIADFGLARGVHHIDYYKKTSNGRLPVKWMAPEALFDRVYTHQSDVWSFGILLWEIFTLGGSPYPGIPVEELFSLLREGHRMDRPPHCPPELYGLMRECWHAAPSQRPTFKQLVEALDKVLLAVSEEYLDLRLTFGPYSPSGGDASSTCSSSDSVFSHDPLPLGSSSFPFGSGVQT
# TEST SUMMARY: Kinase binding assay (kinase-tagged T7 phage, affinity beads, qPCR), Kd
# CONDITIONS USED: read-out: FGFR4 (Kd nM)

Some molecules with recorded Kd:
{"STRUCTURE NOTATION": "COc1cc2[nH]nc(-c3cnc(N4CC(CC#N)(N5CCCC5)C4)c(C#N)c3)c2cc1O[C@H](C)c1c(Cl)cncc1Cl", "REPORTED": "1 to 50 nM"}
{"STRUCTURE NOTATION": "C[C@@H](Oc1cc2c(-c3cnc(N4CC(C)(NCC5CC5)C4)c(F)c3)n[nH]c2cc1F)c1c(Cl)cncc1Cl", "REPORTED": "1 to 50 nM"}
{"STRUCTURE NOTATION": "COc1cc2[nH]nc(-c3cnc(N4CC(C)(NC[C@H](C)O)C4)c(F)c3)c2cc1O[C@H](C)c1c(Cl)cncc1Cl", "REPORTED": "1 to 50 nM"}
{"STRUCTURE NOTATION": "COc1cc2[nH]nc(-c3cc(C#N)c(N4CC(C)(NCC(C)C)C4)nn3)c2cc1O[C@H](C)c1c(Cl)cncc1Cl", "REPORTED": "1 to 50 nM"}
{"STRUCTURE NOTATION": "C[C@@H](Oc1ccc2[nH]nc(-c3cnc(N4CC(C)(CP(C)(C)=O)C4)c(F)c3)c2c1F)c1c(Cl)cncc1Cl", "REPORTED": "50 to 300 nM"}

# input for lookup
Q. Given the entry "C[C@H](Oc1ccc2[nH]nc(-c3cnc(N4C[C@@H](CS(C)(=O)=O)[C@@H]4C)c(F)c3)c2c1)c1c(Cl)cncc1Cl" , report its measured Kd.
A. 50 to 300 nM
